The origin of these recorded values is paper PMC8765781.

Test system: wild-type ZIKV (Ugandan MR766 strain) in Vero cells
Assay: ZIKV cytopathic effect (CPE) inhibition qHTS assay, CellTiter-Glo readout
Type: cell-based, Zika virus
Details: Zika virus, Vero, read-out: Log AC50 (M) (converted)
Assay Metric: AC50 (M)
Lab book: enter the figure in M, no units written.

In the examples that follow, each entry is paired with its recorded AC50.
Molecule | Assay Metric | Uom | Recorded Measurement
COc1cc2c(cc1OC)[C@@H]1[C@H](O)[C@@H](OC)C=C3CCN(C2)[C@H]31 [NCGC00384634-01] | AC50 | M | 5.7e-06
CO[C@H]1[C@H](O)[C@H](O[C@H]2CC[C@]3(C)C4CC[C@]5(C)[C@H](C6=CC(=O)OC6)CC[C@]5(O)C4CC[C@@H]3C2)O[C@@H](C)[C@@H]1O (stereo partly shown) [NCGC00180641-02] | AC50 | M | 1e-06
O=C(O)c1ccc2c(c1)nc(Nc1cccc(Cl)c1)c1ccncc12 [NCGC00485907-01] | AC50 | M | 6.51e-05

Request: AC50 lookup needed for CC[C@H](CC#N)OC(=O)N[C@@H](C)c1cccc(NC(=O)Nc2ccc(-c3cnco3)c(OC)c2)c1 [NCGC00345803-05] , thanks.
Response: 7.31e-05

Request: AC50 lookup needed for C=C1CC2OC(=O)C(=C)C2C(OC(=O)/C(C)=C\C)CC2(C)OC1=CC2=O (stereo not shown) [NCGC00384607-01] , thanks.
Response: 4.53e-05

Request: AC50 lookup needed for COC(=O)[C@@]1(C)C(=O)C=C[C@]2(C)c3c(O)cc(C(C)C)cc3[C@H](O)[C@@H](OC(C)=O)C12 (stereo partly shown) [NCGC00385132-01] , thanks.
Response: 1.42e-05

Request: AC50 lookup needed for C[S+](=O)([O-])NC[C@H]1CC[C@H](Nc2nc3c(s2)CCSc2ccccc2-3)CC1 [NCGC00370875-01] , thanks.
Response: 7.31e-05

---

Reported WHV active Yes/No values, WNV (Kern515/WN02).

In the examples that follow, each entry is paired with its recorded WHV active Yes/No.
Compound | Tested System | WHV active Yes/No
Cc1[nH]c2ccccc2c1C1=C(NCCc2ccc(F)cc2)C(=O)N(C)C1=O | WNV (Kern515/WN02) | No
CC(C)(C#N)c1ccc(N2C(=O)OCc3cnc4ccc(-c5cnc6ccccc6c5)cc4c32)cc1 | WNV (Kern515/WN02) | No
COC(=O)[C@]12CCCC(C)(C)C1CCc1cc(C(C)C)c(O)c(O)c12 (stereo partly shown) | WNV (Kern515/WN02) | No
C=C(C)[C@@]12O[C@@H]1[C@@]1(C)C(=CC2=O)CC[C@@H](OC(C)=O)[C@@H]1C | WNV (Kern515/WN02) | Yes
CNC(=O)c1cc(Oc2ccc(NC(=O)Nc3cc(C(C)(C)C)nn3-c3ccc4ncccc4c3)c(F)c2)ccn1 | WNV (Kern515/WN02) | No
CC1(C)CC2C(O)C3=C(CC(C)(O)C2C1)C(=O)OC3 (stereo not shown) | WNV (Kern515/WN02) | No
C=C(F)c1sc(CNCCCNc2cc(=O)c3ccccc3[nH]2)c(C)c1Br | WNV (Kern515/WN02) | No
OC1C=C2C3CN(Cc4cc5c(cc43)OCO5)C2CC1O (stereo not shown) | WNV (Kern515/WN02) | Yes

Request: WHV active Yes/No lookup needed for CCC[S+](=O)([O-])Nc1ccc(F)c(C(=O)c2c[nH]c3ncc(-c4ccc(Cl)cc4)cc23)c1F , thanks.
Response: No

Request: WHV active Yes/No lookup needed for C=C1CCC2[C@](C)(CCC[C@]2(C)C(=O)O)[C@H]1CC/C(C)=C/C(=O)OC (stereo partly shown) , thanks.
Response: No

Request: WHV active Yes/No lookup needed for CCOC(=O)C1=C(C)NC2=C(C(=O)CC(C)(C)C2)C1c1ccc(-c2ccccc2)cc1 (stereo not shown) , thanks.
Response: No

Request: WHV active Yes/No lookup needed for Cc1ccc2c(c1)Cc1c(C(=O)NN3CCCCC3)nn(-c3ccc(Cl)cc3Cl)c1-2 , thanks.
Response: No

Request: WHV active Yes/No lookup needed for CS[C@H]1SC[C@@H]2C(=O)N(C)[C@H](C(C)C)C(=O)OC[C@H](NC(=O)c3cnc4ccccc4n3)C(=O)N[C@H](C)C(=O)N(C)[C@H]1C(=O)N(C)[C@H](C(C)C)C(=O)OC[C@H](NC(=O)c1cnc3ccccc3n1)C(=O)N[C@H](C)C(=O)N2C , thanks.
Response: No
